# measured_target: T1, IL-18 receptor (IL-18Rα/IL-18Rβ) overexpressed on HEK-Blue IL-18 cells (Homo sapiens (Human), UniProt Q13478 19-541; O95256 20-599)
# T1 sequence 1: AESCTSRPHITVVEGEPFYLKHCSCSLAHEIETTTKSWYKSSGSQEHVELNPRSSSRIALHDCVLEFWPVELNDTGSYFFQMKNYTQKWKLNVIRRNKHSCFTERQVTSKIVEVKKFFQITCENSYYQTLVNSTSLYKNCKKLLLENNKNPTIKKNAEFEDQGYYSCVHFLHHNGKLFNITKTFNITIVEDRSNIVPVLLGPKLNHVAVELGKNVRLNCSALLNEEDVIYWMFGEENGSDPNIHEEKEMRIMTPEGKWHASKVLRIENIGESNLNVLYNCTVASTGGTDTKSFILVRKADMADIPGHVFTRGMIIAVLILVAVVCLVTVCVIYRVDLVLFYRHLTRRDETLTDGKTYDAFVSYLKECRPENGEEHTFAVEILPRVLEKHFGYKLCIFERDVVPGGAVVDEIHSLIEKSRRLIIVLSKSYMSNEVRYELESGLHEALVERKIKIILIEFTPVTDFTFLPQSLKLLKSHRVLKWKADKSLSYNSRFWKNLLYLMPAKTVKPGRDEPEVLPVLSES
# T1 sequence 2: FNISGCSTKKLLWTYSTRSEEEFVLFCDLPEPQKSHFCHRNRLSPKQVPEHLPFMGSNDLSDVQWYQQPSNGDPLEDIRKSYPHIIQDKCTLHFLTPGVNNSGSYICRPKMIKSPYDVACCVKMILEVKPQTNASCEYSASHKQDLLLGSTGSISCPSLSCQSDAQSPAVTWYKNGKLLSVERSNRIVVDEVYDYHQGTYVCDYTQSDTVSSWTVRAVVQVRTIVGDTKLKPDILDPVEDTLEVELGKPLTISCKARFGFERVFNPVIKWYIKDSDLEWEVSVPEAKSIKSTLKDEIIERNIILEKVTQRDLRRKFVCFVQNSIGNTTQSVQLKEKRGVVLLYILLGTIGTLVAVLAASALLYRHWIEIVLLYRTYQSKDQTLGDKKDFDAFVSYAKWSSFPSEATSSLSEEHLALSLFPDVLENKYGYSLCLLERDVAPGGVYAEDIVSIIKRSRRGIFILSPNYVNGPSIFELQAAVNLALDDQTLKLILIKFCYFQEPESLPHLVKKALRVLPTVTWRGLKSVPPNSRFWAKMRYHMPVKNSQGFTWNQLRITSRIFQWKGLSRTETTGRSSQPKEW
# assay_explanation: cell-based or functional assay
readout_label: HEK-Blue IL-18: Abs405 (Emax) (Abs)
Answers are plain numbers, in Abs.

Reference set, count: 2
Tell me measured HEK-Blue IL-18: Abs405 (Emax) for DGL063 (bispecific antibody, V domains shown) V domain 1: QLQLVESGGGLVQPGGSLRLSCAASGKIFSINIMDWYRQAPGKERELVARISPGDIITYANDVKGRFTISRNNAKNTVYLQMNSLKPEDTAVYYCRWRQGAGDYWGRGTQVTVSS V domain 2: QVQLQESGGGLVQPGGSLGLSCAASGIKISVNSMAWYRQAPGERREMVAVISSGGSAVYADSVKGRFTISRDNAKNMVYLQMNSLKPEDTAVYYCHPGSAAYRDYWGQGTQVTVSS please.
0.6

Tell me measured HEK-Blue IL-18: Abs405 (Emax) for DGL094 (bispecific antibody, V domains shown) V domain 1: QVQLVESGGGLVQAGGSLRLSCAASGRTFSSYTMGWFRQAPGKEREFVAAISWSAGRTYYADSVKGRFTISRDNAKNTVYLQMNSLKPEDTAVYFCAAEEAPDWAPIDCSGYGCLSLYDYWGQGTQVTVSS V domain 2: QVQLVESGGGLVLPGESLRLSCVVSGTIDNINSMGWYRQAPGKQRELVAYITKLGSANYADSVEGRFTISRDNAKKTVHLQMNSLKPEDTAVYYCHANERGRITWAQGTQVTVSS please.
0.7

Next item in the queue.
Tell me measured HEK-Blue IL-18: Abs405 (Emax) for DGL075 (bispecific antibody, V domains shown) V domain 1: EVQLVESGGGLVQPGGSLRLSCAASGSIFSINAMGWYRQAPGKQREVVATSTGGGMTNYADSVKGRFTISRDNAKNTVYLQMNSLKPEDTAVYYCNADKDPFFPGDYWGQGTQVTVSS V domain 2: EVQLVESGGGVAQAGGSLRLSCAASITSFSLNTMGYYRQLPGKQRELVAVESSSGITNYADSVKGRFTISRDGAKNTVFLQMNSLTPEDTAVYYCGGKLFGRDFWGQGTQVTVSS please.
0.81
